B1: Osa-1-4 twister ribozyme (parent)
chain: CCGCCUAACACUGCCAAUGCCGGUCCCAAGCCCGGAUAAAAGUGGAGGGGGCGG

variants of: B1; test: self-cleavage, relative activity (ratio to wild type); higher = more cleavage; co-transcriptional
Classify as follows. Reported self-cleavage greater than or equal to 0.06: 1.0. Reported self-cleavage below: 0.0.

variant label: C21A G19U
assigned class: 1.0

variant label: A8C G23A
assigned class: 1.0

variant label: C9U G23U
assigned class: 0.0

variant label: A39U G51A
assigned class: 1.0

variant label: A29C G49U
assigned class: 0.0

variant label: A10C G51C
assigned class: 0.0

variant label: G22U G49A
assigned class: 1.0

variant label: C26G C27G
assigned class: 1.0

variant label: A10C G22A
assigned class: 0.0

variant label: C26A G47U
assigned class: 0.0

variant label: A46G G51A
assigned class: 0.0

variant label: G48C U18G
assigned class: 1.0

variant label: G34A G44C
assigned class: 1.0

variant label: C11G G19C
assigned class: 0.0

variant label: C33G G22U
assigned class: 1.0

variant label: G47C G49A
assigned class: 0.0

variant label: A41G G47U
assigned class: 1.0

variant label: A17U C27G
assigned class: 1.0

variant label: C31G G13U
assigned class: 0.0
